System: NCI-H1792
assay-explanation: relative viability (nuclei count vs DMSO), 5 days (fraction); higher = more cells survive
condition-notes: first compound 0.6325 µM
Under this convention, criterion met denotes relative viability strictly below 0.4 and criterion not met denotes relative viability at or above 0.4.

Take a look at these entries with their results.
molecule | system-under-test | category
CN1CCN(CCOc2cc(OC3CCOCC3)c3c(Nc4c(Cl)ccc5c4OCO5)ncnc3c2)CC1 [Saracatinib] + Nc1ncn([C@H]2C[C@H](O)[C@@H](CO)O2)c(=O)n1 [Decitabine] (partner 2 µM) | NCI-H1792 | criterion not met
Cc1csc(=NC2CCCCC2)n1/N=C/c1ccc(O)c(O)c1O [MIM1] + C[C@]1(O)C[C@@H](c2nc(-c3ccc4ccc(-c5ccccc5)nc4c3)c3c(N)nccn32)C1 [Linsitinib] (partner 1 µM) | NCI-H1792 | criterion not met
CN1CCN(CCOc2cc(OC3CCOCC3)c3c(Nc4c(Cl)ccc5c4OCO5)ncnc3c2)CC1 [Saracatinib] + Nc1nc2[nH]cc(CCc3ccc(C(=O)N[C@@H](CCC(=O)O)C(=O)O)cc3)c2c(=O)[nH]1 [Pemetrexed] (partner 0.2 µM) | NCI-H1792 | criterion not met
Cc1csc(=NC2CCCCC2)n1/N=C/c1ccc(O)c(O)c1O [MIM1] + CC(=O)Nc1cccc(-n2c(=O)n(C3CC3)c(=O)c3c(Nc4ccc(I)cc4F)n(C)c(=O)c(C)c32)c1 [Trametinib] (partner 0.02 µM) | NCI-H1792 | criterion met

Is relative viability of Cc1csc(=NC2CCCCC2)n1/N=C/c1ccc(O)c(O)c1O [MIM1] + Cc1nc(Nc2ncc(C(=O)Nc3c(C)cccc3Cl)s2)cc(N2CCN(CCO)CC2)n1 [Dasatinib] (partner 0.075 µM) strictly below 0.4?
criterion not met

From: the supplement of paper PMC10307832
